Data credit: paper PMC8243326

Target: OATP1B3 (Homo sapiens)
Sequence (Q9NPD5 1-702): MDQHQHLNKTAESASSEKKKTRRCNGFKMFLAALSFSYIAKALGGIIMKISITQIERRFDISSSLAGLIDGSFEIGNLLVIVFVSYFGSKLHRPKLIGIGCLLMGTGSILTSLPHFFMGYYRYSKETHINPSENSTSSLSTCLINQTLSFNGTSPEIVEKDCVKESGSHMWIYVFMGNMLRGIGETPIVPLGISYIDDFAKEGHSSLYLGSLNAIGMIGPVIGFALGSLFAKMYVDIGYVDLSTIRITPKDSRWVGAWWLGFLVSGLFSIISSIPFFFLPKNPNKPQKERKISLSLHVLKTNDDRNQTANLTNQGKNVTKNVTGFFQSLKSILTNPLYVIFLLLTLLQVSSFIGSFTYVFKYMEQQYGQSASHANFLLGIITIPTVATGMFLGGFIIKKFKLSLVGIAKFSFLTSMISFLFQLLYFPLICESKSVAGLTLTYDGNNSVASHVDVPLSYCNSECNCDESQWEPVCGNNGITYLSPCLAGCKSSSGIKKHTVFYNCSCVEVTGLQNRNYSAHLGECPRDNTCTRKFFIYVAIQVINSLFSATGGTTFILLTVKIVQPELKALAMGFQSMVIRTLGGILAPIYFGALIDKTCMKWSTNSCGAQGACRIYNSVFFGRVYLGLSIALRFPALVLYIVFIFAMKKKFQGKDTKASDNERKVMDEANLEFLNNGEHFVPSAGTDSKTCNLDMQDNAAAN
Assay: Pyranine uptake inhibition in A431 cells overexpressing OATP1B3
experimental.endpoint: IC50 (µM)
Report the value in µM with no unit label.

Supply recorded IC50 for CCOP(=O)(OCC)c1c(OC)ccc2c1CCC1C2CC[C@@]2(C)C(=O)CCC12 (stereo partly shown) here. 11.8

Find the measured IC50 of CCOP(=O)(OCC)c1c(OCc2ccccc2)ccc2c1CCC1C2CC[C@@]2(C)C(=O)CCC12 (stereo partly shown) and report it. 2.49

Give reported IC50 value for C[C@@]12CCC3c4ccc(O)c(Br)c4CCC3C1CCC2=O (stereo partly shown) 9.2

Write down IC50 measured for item CCOP(=O)(OCC)c1cc2c(cc1OCc1ccccc1)CCC1C2CC[C@@]2(C)C(=O)CCC12 (stereo partly shown) 2.18

For C[C@@]12CCC3c4cc(I)c(O)cc4CCC3C1CCC2=O (stereo partly shown) , write its IC50. 18.2

Fill in reported IC50 for this entry: C[C@@]12CCC3c4ccc(O)c(I)c4CCC3C1CCC2=O (stereo partly shown) 8.28

Answer with the recorded IC50 of CCOP(=O)(OCC)c1cc2c(cc1OC)CCC1C2CC[C@@]2(C)C(=O)CCC12 (stereo partly shown) only. 9.5

Consider the molecule CCOP(=O)(OCC)c1cc2c(cc1O)CCC1C2CC[C@@]2(C)C(=O)CCC12 (stereo partly shown) and give its recorded IC50. 5.24

---

Assign pIC50 to each entry below.
Target: OATP2B1 (Homo sapiens, UniProt O94956)
Sequence (O94956 whole entry): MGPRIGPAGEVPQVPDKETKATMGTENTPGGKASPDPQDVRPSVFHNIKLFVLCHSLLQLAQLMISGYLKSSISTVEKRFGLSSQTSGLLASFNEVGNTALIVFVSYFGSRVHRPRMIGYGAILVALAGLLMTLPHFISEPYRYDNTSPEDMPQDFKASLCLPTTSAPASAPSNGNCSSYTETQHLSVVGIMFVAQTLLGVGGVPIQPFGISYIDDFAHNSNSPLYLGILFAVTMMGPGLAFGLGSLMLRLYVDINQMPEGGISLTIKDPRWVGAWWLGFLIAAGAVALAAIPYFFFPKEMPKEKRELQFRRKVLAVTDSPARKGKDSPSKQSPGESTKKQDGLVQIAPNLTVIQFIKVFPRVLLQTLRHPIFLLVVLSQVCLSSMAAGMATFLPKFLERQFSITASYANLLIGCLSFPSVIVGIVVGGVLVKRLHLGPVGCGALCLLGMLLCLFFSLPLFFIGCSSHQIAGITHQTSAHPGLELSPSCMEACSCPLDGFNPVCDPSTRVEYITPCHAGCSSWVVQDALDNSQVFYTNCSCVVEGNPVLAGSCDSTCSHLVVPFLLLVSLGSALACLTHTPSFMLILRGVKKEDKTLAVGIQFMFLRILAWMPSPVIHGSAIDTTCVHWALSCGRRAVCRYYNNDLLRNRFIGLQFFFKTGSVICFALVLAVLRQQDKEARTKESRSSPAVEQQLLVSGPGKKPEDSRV
Experiment: Pyranine uptake inhibition in A431 cells overexpressing OATP2B1
Scale: negative log10 of molar concentration, which is what pIC50 denotes.

Look up and state reported pIC50 for CCOP(=O)(OCC)c1c(OC)ccc2c1CCC1C2CC[C@@]2(C)C(=O)CCC12 (stereo partly drawn) 5.56

Tell us which pIC50 value is on record for C[C@@]12CCC3c4cc(I)c(O)cc4CCC3C1CCC2=O (stereo partly drawn) 6.22

Given the molecule C[C@@]12CCC3c4cc(Br)c(O)cc4CCC3C1CCC2=O (stereo partly drawn) , write its reported pIC50. 5.92

Give the measured pIC50 for C[C@@]12CCC3c4ccc(O)c(I)c4CCC3C1CCC2=O (stereo partly drawn) 5.45

Please report pIC50 for the following molecule: CCOP(=O)(OCC)c1c(OCc2ccccc2)ccc2c1CCC1C2CC[C@@]2(C)C(=O)CCC12 (stereo partly drawn) 6.12

Please give the documented pIC50 of CCOP(=O)(OCC)c1cc2c(cc1OC)CCC1C2CC[C@@]2(C)C(=O)CCC12 (stereo partly drawn) 5.53

Quote pIC50 reported for C[C@@]12CCC3c4ccc(O)c(Cl)c4CCC3C1CCC2=O (stereo partly drawn) please. 4.98

Quote pIC50 reported for C[C@@]12CCC3c4cc(Cl)c(O)cc4CCC3C1CCC2=O (stereo partly drawn) please. 6.05
